// reported hERG current change (%, negative = inhibition) at 10uM for each item listed
- ASSAYED_TARGET: human ether-à-go-go-related gene (hERG) potassium channel (human, UniProt Q12809)
- Sequence (Q12809 whole entry, looked up): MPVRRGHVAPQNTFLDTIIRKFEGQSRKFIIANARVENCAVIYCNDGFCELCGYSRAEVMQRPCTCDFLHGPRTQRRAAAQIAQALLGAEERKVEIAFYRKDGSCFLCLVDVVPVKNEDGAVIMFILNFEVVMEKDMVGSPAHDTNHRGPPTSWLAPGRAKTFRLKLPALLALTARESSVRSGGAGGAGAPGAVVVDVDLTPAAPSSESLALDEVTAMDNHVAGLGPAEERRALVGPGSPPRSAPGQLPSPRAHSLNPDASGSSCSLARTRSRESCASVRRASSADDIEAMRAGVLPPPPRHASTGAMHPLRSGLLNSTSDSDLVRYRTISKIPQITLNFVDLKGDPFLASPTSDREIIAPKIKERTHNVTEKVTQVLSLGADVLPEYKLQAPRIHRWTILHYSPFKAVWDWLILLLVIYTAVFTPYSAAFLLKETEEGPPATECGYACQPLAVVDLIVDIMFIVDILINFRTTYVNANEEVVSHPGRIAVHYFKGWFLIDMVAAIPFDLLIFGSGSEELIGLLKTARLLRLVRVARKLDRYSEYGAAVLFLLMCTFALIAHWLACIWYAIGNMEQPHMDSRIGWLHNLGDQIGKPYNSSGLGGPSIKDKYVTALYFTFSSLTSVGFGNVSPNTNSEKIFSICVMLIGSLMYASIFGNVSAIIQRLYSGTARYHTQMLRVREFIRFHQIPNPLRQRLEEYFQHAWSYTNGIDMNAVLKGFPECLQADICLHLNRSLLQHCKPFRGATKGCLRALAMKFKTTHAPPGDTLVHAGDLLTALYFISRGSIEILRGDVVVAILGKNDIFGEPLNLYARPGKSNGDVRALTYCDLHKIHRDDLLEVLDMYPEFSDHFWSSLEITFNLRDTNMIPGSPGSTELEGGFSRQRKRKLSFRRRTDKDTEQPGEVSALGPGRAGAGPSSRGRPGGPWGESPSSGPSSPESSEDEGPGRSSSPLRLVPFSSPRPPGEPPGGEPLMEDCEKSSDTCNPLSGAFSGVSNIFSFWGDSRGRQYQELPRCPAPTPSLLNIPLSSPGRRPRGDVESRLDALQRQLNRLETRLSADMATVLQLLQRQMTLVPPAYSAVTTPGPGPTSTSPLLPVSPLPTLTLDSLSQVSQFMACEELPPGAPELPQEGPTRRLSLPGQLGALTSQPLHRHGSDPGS
- ASSAY_PROTOCOL: primary screen, population patch clamp on CHO cells stably expressing hERG; higher = less effect of the substance
Among all 310,000 compounds or so, about 14,000 (4.5%) showed an effect of 50% or more. Effects have a minus sign here. This is one part of a sample in which strong results are shown more often than they occur.
// units = %; emit number, no label

Past entries and their recorded results:
> print(dat)
                                   molecule  numeric.value
1    Cc1ccc(CNc2nc(-c3cccnc3)nc3ccccc23)cc1           8.72
2  O=C(c1cc(O)c(O)c([N+](=O)[O-])c1)c1ccccc1F           2.56

Request: For c1ccc(CNc2nc(-c3cccnc3)nc3ccccc23)cc1 , what is its reported hERG current change (%, negative = inhibition) at 10uM?
Result: -23.4

Request: For COc1ccc(C(CNc2nc(-c3cccnc3)nc3ccccc23)N(C)C)cc1 (centres unmarked) , what is its reported hERG current change (%, negative = inhibition) at 10uM?
Result: -59.2

Request: For Fc1ccc(CNc2nc(-c3cccnc3)nc3ccccc23)cc1 , what is its reported hERG current change (%, negative = inhibition) at 10uM?
Result: -50.4

====

- ASSAYED_TARGET: human ether-à-go-go-related gene (hERG) potassium channel (human, UniProt Q12809)
- ASSAY_PROTOCOL: primary screen, population patch clamp on CHO cells stably expressing hERG; higher = less effect of the substance
Hit rate of the full screen: of about 310,000 compounds, about 14,000 (4.5%) showed an effect of 50% or more. The effect is printed as a negative number. What follows is part of a selection rich in strong results, with near analogues and random picks from the rest.
// reported hERG current change (%, negative = inhibition) at 10uM for each item listed
// units = %; emit number, no label

> print(dat)
                                   compound  scale.unit  numeric.value
1              Cc1cc(C)n(-c2nc(C)nc(N)n2)n1           %           10.3
2  CC(=O)c1ccc(N2CCN(CC(=O)Nc3ccccc3C(=O)NC3CC3)CC2)c(F)c1           %          -27.9

Request: For O=C(CSc1nnc(-c2ccncc2)n1-c1ccccc1)Nc1ccc(C(=O)O)cc1 , what is its reported hERG current change (%, negative = inhibition) at 10uM?
Result: 25.5

Request: For O=C(Nc1cccc(O)c1)C1CCCN1C(=O)OCc1ccccc1 (stereo not drawn) , what is its reported hERG current change (%, negative = inhibition) at 10uM?
Result: -7.35

Request: For CCCCNC(=O)Cn1cnc([N+](=O)[O-])n1 , what is its reported hERG current change (%, negative = inhibition) at 10uM?
Result: 10.8

Request: For CCCCCNC(=O)c1cccnc1SCC(=O)Nc1ccccc1OC , what is its reported hERG current change (%, negative = inhibition) at 10uM?
Result: -65.6

Request: For CSc1ccc(/C=C(\NC(=O)c2ccc(C)cc2)C(=O)Nc2cccc(C)c2)cc1 , what is its reported hERG current change (%, negative = inhibition) at 10uM?
Result: 15.6

====

// reported hERG current change (%, negative = inhibition) at 10uM for each item listed
- ASSAYED_TARGET: human ether-à-go-go-related gene (hERG) potassium channel (human, UniProt Q12809);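 also: peak tail current of the secondary pulse compared with the same well before compound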
- ASSAY_PROTOCOL: primary screen, population patch clamp on CHO cells stably expressing hERG; higher = less effect of the substance
In all, about 310,000 compounds went through this assay and about 14,000 (4.5%) showed an effect of 50% or more. Effects have a minus sign here. Many of the other results were omitted from the sample, so strong results are more common in it than they were.
// units = %; emit number, no label

Past entries and their recorded results:
> print(dat)
                                   molecule  scale.unit  numeric.value
1  CC(NC(=O)c1cc([N+](=O)[O-])cc([N+](=O)[O-])c1)c1ccc(-n2ccnc2)cc1 (centres unmarked)           %          -73.5
2           c1cncc(CSc2ccc(-c3cccnc3)nn2)c1           %           9.04
3  Cc1cccc(C(=O)NC(C)c2ccc(-n3ccnc3)cc2)c1C (centres unmarked)           %          -42.2
4  Cc1c(C(=O)NC(C)CCc2ccccc2)cccc1[N+](=O)[O-] (centres unmarked)           %          -18.2

Request: Record c1ccc(CSc2ccc(-c3cccnc3)nn2)nc1 : what is its hERG current change (%, negative = inhibition) at 10uM with human ether-à-go-go-related gene (hERG) potassium channel (human, UniProt Q12809)?
Result: 6.82

====

- ASSAYED_TARGET: human ether-à-go-go-related gene (hERG) potassium channel (human, UniProt Q12809);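 also: peak tail current of the secondary pulse compared with the same well before compound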
- ASSAY_PROTOCOL: primary screen, population patch clamp on CHO cells stably expressing hERG; higher = less effect of the substance
- Procedure: Briefly, Chinese hamster ovary (CHO) cells stably expressing the hERG channel were dislodged from tissue culture flasks and dispensed into PPC plates. […] During the recording, background leak currents were estimated by a 100 ms step to -80 mV from an initial holding potential of -70 mV and subtracted from the subsequent current measurement. The campaign was conducted in two phases using slight differences in recording protocol. […]
The whole screen tested about 310,000 compounds, of which about 14,000 (4.5%) showed an effect of 50% or more. The effect is printed as a negative number. The sample as a whole holds a higher share of strong results than the screen did.
READOUT: hERG current change (%, negative = inhibition) at 10uM (%)
// units = %; emit number, no label

> print(dat)
                                   compound  numeric.value
1  CC(=O)NC1CC2CCCC(C1)N2CC(=O)Nc1ccccc1 (stereo not shown)           4.65

Request: For O=C(CN1C2CCCC1CC(NC(=O)c1ccccc1)C2)Nc1ccccc1 (stereo not shown) , what is its reported hERG current change (%, negative = inhibition) at 10uM?
Result: -50.7

Request: For O=C(CN1C2CCCC1CC(NC(=O)c1ccccc1)C2)Nc1ccccc1C(F)(F)F (stereo not shown) , what is its reported hERG current change (%, negative = inhibition) at 10uM?
Result: 6.14

Request: For COc1cc(NC(=O)C(=O)NCCN(C)C)c(OC)cc1Cl , what is its reported hERG current change (%, negative = inhibition) at 10uM?
Result: 8.41

Request: For Cc1ccc(C)n1-c1ccc(-c2nnco2)cc1 , what is its reported hERG current change (%, negative = inhibition) at 10uM?
Result: 8.42

Request: For CN(NC(=O)c1ccccc1Cl)c1ncc(C(F)(F)F)cc1Cl , what is its reported hERG current change (%, negative = inhibition) at 10uM?
Result: -1.95

====

- ASSAYED_TARGET: human ether-à-go-go-related gene (hERG) potassium channel (human);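 also: peak tail current of the secondary pulse compared with the same well before compound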
- ASSAY_PROTOCOL: primary screen, population patch clamp on CHO cells stably expressing hERG; higher = less effect of the substance
In all, about 310,000 compounds went through this assay and about 14,000 (4.5%) showed an effect of 50% or more. The effect is printed as a negative number. Shown is part of a subset that was picked to be rich in strong results.
Assign criterion met whenever hERG current change (%, negative = inhibition) at 10uM does not fall below -20%; assign criterion not met whenever it does.

Example results:
> print(dat)
                                   compound        class.label
1  Cc1cccc(CN2CCC(C(=O)Nc3ccc(Oc4cccnc4)cc3)CC2)c1      criterion met
2  O=C(Nc1ccc(Oc2cccnc2)cc1)C1CCN(Cc2ccc(F)cc2)CC1  criterion not met
3  O=C(Nc1ccc(Oc2ccccc2)cc1)C1CCN(c2ncccn2)CC1      criterion met
4  Cc1ccccc1CN1CCC(C(=O)Nc2ccc(Oc3cccnc3)cc2)CC1  criterion not met

Field: next compound
Request: Decide: is the reported value of hERG current change (%, negative = inhibition) at 10uM for Cc1ccc(CN2CCCCC2C(=O)Nc2ccc(Oc3cccnc3)cc2)o1 (centres unmarked) equal to or greater than -20%?
Result: criterion met

====

// reported hERG current change (%, negative = inhibition) at 10uM for each item listed
- ASSAYED_TARGET: human ether-à-go-go-related gene (hERG) potassium channel (human);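 also: peak tail current of the secondary pulse compared with the same well before compound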
- ASSAY_PROTOCOL: primary screen, population patch clamp on CHO cells stably expressing hERG; higher = less effect of the substance
About 14,000 (4.5%) of roughly 310,000 compounds showed an effect of 50% or more. Effects have a minus sign here. The sample as a whole holds a higher share of strong results than the screen did.
// units = %; emit number, no label

> print(dat)
                                   molecule  scale.unit  numeric.value
1  CC1(C)CC(=O)C(C=NCC2CCN(C(=O)Nc3ccc(Cl)c(Cl)c3)CC2)=C(O)C1           %          -23.8
2  CC1(C)C2CCC(C2)C1(C)NC(=O)C[N+](C)(C)C.[Cl-] (stereo not shown)           %           12.6
3  CC(C)C(NS(=O)(=O)c1cccs1)C(=O)NCc1ccc2c(c1)OCO2 (stereo not shown)           %            -12
4           C=CCC1(N(C(C)=O)c2ccccc2)CCCCC1           %           5.28
5  COc1ccc(CC(=O)Nc2ccc(-c3nnc(-c4ccc(C)cc4)o3)cc2)cc1           %           19.1

Request: Record COc1ccc(OC)c(C(=O)Cn2nnc3ccccc3c2=O)c1 : what is its hERG current change (%, negative = inhibition) at 10uM with human ether-à-go-go-related gene (hERG) potassium channel (human)?
Result: 9.14

Request: Record CC1(C)CC(=O)C(C=NCCN2CCN(C(=O)Cc3ccc(Cl)cc3)CC2)=C(O)C1 : what is its hERG current change (%, negative = inhibition) at 10uM with human ether-à-go-go-related gene (hERG) potassium channel (human)?
Result: -62

Sourced from paper PMC4336329
